Biological target: T1, recombinant full length human tissue factor pathway inhibitor (TFPI) (human, UniProt P10646 29-304)
T1 construct: also called TFPI1; human TFPI
Assay: SPR (Biacore), recombinant human TFPI
Readout: Kd (nM)
Return type: number; implicit unit nM.

>  <Binder>
HzTFPI4F36 HC-G42E, G44R, CDR2 (antibody, human IgG4 S228P, kappa, name in Kabat numbering, V domains shown, Mutated CDR-grafted heavy chain with wild type CDR-grafted light chain; Kabat numbering; also called HzTFPI4F36 G42E, G44R, Y59F, A60P, K64Q) VH: EVQLVESGGGLVKPGGSLRLSCAASGFTFSNYAMSWVRQAPEKRLEWVSTISRSGSYSYFPDSVQGRFTISRDNAKNSLYLQMNSLRAEDTAVYYCARLGGYDEGDAMDSWGQGTTVTVSS VL: DIVMTQTPLSLSVTPGQPASISCKSSQSLLESDGKTYLNWYLQKPGQSPQLLIYLVSILDSGVPDRFSGSGSGTDFTLKISRVEAEDVGVYYCLQATHFPQTFGGGTKVEIKR

>  <Units of measure>
nM

>  <Val>
0.039

$$$$
>  <Binder>
HzTFPI4F36 HC-G44R (antibody, human IgG4 S228P, kappa, name in Kabat numbering, V domains shown, Mutated CDR-grafted heavy chain with wild type CDR-grafted light chain; Kabat numbering) VH: EVQLVESGGGLVKPGGSLRLSCAASGFTFSNYAMSWVRQAPGKRLEWVSTISRSGSYSYYADSVKGRFTISRDNAKNSLYLQMNSLRAEDTAVYYCARLGGYDEGDAMDSWGQGTTVTVSS VL: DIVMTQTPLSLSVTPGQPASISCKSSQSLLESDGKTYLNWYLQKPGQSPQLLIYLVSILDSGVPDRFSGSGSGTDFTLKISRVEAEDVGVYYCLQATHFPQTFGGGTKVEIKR

>  <Units of measure>
nM

>  <Val>
2.3

$$$$
>  <Binder>
HzTFPI4F36 HC-A93T (antibody, human IgG4 S228P, kappa, name in Kabat numbering, V domains shown, Mutated CDR-grafted heavy chain with wild type CDR-grafted light chain; Kabat numbering) VH: EVQLVESGGGLVKPGGSLRLSCAASGFTFSNYAMSWVRQAPGKGLEWVSTISRSGSYSYYADSVKGRFTISRDNAKNSLYLQMNSLRAEDTAVYYCTRLGGYDEGDAMDSWGQGTTVTVSS VL: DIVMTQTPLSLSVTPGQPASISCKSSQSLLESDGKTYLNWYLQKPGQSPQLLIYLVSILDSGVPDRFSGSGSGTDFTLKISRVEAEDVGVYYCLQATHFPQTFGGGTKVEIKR

>  <Units of measure>
nM

>  <Val>
2.7

$$$$

Switching to the query record.
Entry HzTFPI4F36 HC-FR2 (antibody, human IgG4 S228P, kappa, name in Kabat numbering, V domains shown, Mutated CDR-grafted heavy chain with wild type CDR-grafted light chain; Kabat numbering; also called patch mutant in HC FR2) VH: EVQLVESGGGLVKPGGSLRLSCAASGFTFSNYAMSWVRQTPEKRLEWVSTISRSGSYSYYADSVKGRFTISRDNAKNSLYLQMNSLRAEDTAVYYCARLGGYDEGDAMDSWGQGTTVTVSS VL: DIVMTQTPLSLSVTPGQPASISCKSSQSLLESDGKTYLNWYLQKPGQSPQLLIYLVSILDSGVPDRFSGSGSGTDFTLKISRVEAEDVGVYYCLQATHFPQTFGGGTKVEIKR , Kd reported as 0.88
